TARGET OF ASSAY: human vWF A1 domain (SEQ ID NO 5) (Homo sapiens, UniProt P04275, T1381A)
Sequence (P04275 with tags, fused parts or gaps T1381A): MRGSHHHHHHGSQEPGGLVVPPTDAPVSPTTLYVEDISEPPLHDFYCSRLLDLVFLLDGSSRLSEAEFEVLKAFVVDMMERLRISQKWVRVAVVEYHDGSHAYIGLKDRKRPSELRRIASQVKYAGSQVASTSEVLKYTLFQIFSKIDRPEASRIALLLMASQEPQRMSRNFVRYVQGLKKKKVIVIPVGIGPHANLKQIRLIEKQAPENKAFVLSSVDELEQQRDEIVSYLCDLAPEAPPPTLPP
ASSAY METHOD TEXT: dot blot KD determination, human vWF A1 domain
ASSAY CONTEXT: read-out: Human A1 KD; DNA SELEX 1 aptamers; competition dot blot, 100 nM protein, cold competitor titration
Please provide measured pKd for the entries that follow.
FYI, pKd means -log10 of a concentration in mol per litre.

Given AMX199.F7: DNA SELEX 1 aptamer clone (nucleic acid, DNA, backbone not given here, DNA SELEX 1 aptamer clone) DNA: CTACCTACGATCTGACTAGCGGAATGAGAGTGCTGGTGGATTGCTCAGGTCTGCTGGCTGCTTACTCTCATGTAGTTCC , state its recorded pKd.
7.66

Given AMX200.D3: DNA SELEX 1 aptamer clone (nucleic acid, DNA, backbone not given here, DNA SELEX 1 aptamer clone) DNA: CTACCTACGATCTGACTAGCGCAATGAGGATGCTGATGGATTGCTCAGGTCTGCTGGCTGCTTACTCTCATGTAGTTCC , state its recorded pKd.
7.44

Given AMX200.C11: DNA SELEX 1 aptamer clone (nucleic acid, DNA, backbone not given here, DNA SELEX 1 aptamer clone) DNA: CTACCTACGATCTGACTAGCGGAATGAGAGTGCTGATGGATTGCTCAGGTCTGCTGGCTGCTTACTCTCATGTAGTTCC , state its recorded pKd.
7.59

Given AMX199.D11: DNA SELEX 1 aptamer clone (nucleic acid, DNA, backbone not given here, DNA SELEX 1 aptamer clone) DNA: CTACCTACGATCTGACTAGCGGAATGAGAATGCTGGTGGATTGCTCAGGTCTGCTGGCTGCTTACTCTCATGTAGTTCC , state its recorded pKd.
7.52

Given AMX199.G10: DNA SELEX 1 aptamer clone (nucleic acid, DNA, backbone not given here, DNA SELEX 1 aptamer clone) DNA: CTACCTACGATCTGACTAGCGGAATGAGAATGTTGGTGGATTGCTCAGGTCTGCTGGCTGCTTACTCTCATGTAGTTCC , state its recorded pKd.
7.66

Given AMX199.B3: DNA SELEX 1 aptamer clone (nucleic acid, DNA, backbone not given here, DNA SELEX 1 aptamer clone) DNA: CTACCTACGATCTGACTAGCGGAATGAGAATGCTGATGGATTGCTCAGGTCTGCTGGCTGCTTACTCTCATGTAGTTCC , state its recorded pKd.
7.52

Given AMX200.F11: DNA SELEX 1 aptamer clone (nucleic acid, DNA, backbone not given here, DNA SELEX 1 aptamer clone) DNA: CTACCTACGATCTGACTAGCGGAATGAGGATGCTGGTGGATTGCTCAGGTCTGCTGGCTGCTTACTCTCATGTAGTTCC , state its recorded pKd.
7.47

Given AMX199.C2: DNA SELEX 1 aptamer clone (nucleic acid, DNA, backbone not given here, DNA SELEX 1 aptamer clone) DNA: CTACCTACGATCTGACTAGCGGAATGAGAATGCTGGTGGATTGCCCAGGTCTGCTGGCTGCTTACTCTCATGTAGTTCC , state its recorded pKd.
7.77
